test target: low-density lipoprotein receptor related protein-1 (LRP-1) on THP1-XBlue-MD2-CD14 NFκB reporter cells (UniProt Q07954 20-4544)
Sequence (Q07954 20-4544 limits assumed): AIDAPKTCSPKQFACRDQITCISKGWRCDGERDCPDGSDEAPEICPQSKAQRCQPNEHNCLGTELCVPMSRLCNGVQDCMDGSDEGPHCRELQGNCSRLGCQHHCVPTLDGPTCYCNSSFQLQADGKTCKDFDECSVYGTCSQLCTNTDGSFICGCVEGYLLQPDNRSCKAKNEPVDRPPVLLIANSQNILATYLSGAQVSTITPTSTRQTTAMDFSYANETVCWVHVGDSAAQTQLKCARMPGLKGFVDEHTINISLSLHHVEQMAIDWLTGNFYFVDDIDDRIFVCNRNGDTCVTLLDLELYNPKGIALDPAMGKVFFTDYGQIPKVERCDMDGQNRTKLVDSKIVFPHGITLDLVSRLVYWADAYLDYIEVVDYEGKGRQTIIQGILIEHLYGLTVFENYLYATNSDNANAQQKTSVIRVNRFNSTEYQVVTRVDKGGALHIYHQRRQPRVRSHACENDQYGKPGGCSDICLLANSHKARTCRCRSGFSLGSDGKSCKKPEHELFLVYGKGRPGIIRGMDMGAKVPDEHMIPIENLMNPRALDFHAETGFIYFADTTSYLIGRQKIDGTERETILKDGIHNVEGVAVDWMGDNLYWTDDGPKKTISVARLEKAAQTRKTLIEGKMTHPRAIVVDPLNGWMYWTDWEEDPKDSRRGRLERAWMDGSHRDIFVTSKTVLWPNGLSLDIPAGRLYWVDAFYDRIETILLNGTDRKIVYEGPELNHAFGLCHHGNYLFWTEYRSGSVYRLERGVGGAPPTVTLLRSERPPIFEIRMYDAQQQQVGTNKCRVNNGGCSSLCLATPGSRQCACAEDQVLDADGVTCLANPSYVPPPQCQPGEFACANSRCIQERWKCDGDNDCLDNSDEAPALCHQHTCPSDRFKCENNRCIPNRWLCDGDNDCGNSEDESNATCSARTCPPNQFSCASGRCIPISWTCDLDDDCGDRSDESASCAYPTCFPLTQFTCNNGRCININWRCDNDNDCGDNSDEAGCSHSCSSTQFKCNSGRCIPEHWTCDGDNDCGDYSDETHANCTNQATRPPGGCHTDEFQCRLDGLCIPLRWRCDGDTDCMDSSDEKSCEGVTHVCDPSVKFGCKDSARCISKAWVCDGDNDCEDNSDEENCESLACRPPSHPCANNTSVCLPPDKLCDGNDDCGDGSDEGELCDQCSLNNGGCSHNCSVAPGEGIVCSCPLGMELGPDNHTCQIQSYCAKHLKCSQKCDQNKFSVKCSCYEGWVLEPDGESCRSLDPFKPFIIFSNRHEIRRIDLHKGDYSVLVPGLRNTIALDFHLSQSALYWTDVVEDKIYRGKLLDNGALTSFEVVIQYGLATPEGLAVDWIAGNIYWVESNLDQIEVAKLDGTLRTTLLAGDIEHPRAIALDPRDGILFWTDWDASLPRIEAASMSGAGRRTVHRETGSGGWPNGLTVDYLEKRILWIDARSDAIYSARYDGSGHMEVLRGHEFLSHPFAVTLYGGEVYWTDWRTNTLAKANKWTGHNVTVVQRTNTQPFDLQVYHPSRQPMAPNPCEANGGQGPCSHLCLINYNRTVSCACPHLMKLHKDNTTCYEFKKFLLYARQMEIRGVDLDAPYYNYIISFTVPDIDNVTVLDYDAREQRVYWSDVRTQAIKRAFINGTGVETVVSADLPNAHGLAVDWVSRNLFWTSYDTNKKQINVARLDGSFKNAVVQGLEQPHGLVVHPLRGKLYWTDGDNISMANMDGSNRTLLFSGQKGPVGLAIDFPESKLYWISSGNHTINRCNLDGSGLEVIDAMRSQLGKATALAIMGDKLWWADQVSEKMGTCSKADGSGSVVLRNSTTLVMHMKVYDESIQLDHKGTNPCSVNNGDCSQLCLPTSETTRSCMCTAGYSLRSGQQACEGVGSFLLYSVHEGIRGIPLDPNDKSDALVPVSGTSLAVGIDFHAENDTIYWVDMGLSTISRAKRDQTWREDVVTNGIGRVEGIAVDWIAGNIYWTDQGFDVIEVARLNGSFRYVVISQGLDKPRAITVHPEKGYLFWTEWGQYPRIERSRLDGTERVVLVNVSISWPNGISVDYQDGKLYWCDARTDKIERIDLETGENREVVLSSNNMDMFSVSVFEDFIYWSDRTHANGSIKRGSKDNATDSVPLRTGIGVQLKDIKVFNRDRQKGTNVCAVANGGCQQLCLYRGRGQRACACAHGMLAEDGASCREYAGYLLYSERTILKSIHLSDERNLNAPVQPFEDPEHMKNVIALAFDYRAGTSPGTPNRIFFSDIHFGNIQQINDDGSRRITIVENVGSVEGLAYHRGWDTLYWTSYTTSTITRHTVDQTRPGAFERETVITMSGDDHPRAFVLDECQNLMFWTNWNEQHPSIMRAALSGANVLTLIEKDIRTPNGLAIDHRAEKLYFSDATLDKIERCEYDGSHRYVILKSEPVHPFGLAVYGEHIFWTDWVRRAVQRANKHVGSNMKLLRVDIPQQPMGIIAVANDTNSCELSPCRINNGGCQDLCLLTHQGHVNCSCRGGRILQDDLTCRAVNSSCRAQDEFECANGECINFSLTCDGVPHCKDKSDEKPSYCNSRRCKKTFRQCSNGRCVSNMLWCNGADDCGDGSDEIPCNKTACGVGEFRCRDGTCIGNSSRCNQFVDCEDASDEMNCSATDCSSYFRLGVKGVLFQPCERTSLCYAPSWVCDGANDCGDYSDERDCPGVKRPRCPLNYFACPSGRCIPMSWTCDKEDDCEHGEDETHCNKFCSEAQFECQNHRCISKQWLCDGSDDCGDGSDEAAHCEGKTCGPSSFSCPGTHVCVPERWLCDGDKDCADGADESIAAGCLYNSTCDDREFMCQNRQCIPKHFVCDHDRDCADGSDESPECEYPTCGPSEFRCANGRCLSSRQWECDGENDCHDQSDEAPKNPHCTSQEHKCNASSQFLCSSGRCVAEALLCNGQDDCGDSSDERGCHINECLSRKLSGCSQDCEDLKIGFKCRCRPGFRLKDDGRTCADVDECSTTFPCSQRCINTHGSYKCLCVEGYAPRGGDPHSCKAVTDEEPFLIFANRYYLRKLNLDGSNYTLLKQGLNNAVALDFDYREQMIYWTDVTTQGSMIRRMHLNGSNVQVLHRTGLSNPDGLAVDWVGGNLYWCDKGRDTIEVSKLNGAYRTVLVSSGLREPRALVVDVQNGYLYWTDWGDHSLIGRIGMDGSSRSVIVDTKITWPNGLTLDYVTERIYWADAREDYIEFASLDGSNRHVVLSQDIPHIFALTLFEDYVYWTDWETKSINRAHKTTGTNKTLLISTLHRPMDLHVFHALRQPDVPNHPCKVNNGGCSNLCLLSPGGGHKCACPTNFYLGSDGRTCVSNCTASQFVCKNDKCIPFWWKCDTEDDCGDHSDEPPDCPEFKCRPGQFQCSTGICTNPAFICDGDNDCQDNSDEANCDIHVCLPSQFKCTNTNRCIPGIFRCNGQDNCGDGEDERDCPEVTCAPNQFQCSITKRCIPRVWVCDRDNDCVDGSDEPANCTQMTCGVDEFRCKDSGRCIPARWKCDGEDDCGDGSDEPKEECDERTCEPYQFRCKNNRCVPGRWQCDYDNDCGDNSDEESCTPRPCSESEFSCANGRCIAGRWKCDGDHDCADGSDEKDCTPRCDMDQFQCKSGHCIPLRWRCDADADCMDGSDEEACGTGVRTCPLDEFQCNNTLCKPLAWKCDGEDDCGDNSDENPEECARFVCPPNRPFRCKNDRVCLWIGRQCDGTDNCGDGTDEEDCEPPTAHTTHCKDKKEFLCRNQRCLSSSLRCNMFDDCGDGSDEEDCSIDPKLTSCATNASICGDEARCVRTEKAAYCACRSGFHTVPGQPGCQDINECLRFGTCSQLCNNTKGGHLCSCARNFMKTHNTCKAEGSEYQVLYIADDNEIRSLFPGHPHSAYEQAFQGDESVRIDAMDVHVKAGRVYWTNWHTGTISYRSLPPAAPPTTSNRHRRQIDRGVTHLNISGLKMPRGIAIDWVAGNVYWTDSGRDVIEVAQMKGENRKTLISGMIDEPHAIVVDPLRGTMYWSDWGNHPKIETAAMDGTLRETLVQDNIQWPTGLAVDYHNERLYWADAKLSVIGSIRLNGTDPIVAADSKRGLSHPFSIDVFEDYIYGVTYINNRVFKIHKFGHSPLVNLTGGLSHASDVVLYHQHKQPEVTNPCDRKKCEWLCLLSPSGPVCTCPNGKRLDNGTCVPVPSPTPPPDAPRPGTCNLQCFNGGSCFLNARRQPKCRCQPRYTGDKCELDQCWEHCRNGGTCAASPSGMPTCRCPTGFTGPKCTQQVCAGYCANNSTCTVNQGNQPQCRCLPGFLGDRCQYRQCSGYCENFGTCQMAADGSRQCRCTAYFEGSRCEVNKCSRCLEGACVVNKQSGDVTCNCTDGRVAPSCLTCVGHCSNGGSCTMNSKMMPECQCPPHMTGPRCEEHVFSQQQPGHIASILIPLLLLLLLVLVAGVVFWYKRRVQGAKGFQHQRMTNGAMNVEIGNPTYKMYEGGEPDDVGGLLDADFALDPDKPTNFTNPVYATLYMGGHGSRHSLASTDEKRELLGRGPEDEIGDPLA
assay procedure: cell-based or functional assay
Positions of bridges follow the written chain, without caps; N, C: chain ends. Non-standard residues stand in square brackets, D forms with d. No end group written: not given here. Nle = CCCC[C@H](N)C(=O)O; Nal = naphthylalanine
Please go through the items and note down their EC50, NFκB (reduction of NFκB activation, SEAP reporter cells, LPS).
Give a bare numeral; the unit µg/mL is implied.

[Q] Fill blank: measured EC50, NFκB (reduction of NFκB activation, SEAP reporter cells, LPS) of the binder VKFNKPFVFLMIEQNTK [SERPIN peptide SP16 (VKFNKPFVFLMIEQNTK)] is ____.
[A] 152

[Q] Fill blank: measured EC50, NFκB (reduction of NFκB activation, SEAP reporter cells, LPS) of the binder RRRAT[Nal]L[Nle]D (not fully specified (bridges); printed as HN- RRRAT[Nal]L[NIe]D (cyclic); also: cyclic, ring not given here) [SERPIN peptide derivative A3-14, HN-RRRAT[Nal]L[Nle]D (cyclic)] is ____.
[A] 3.77

[Q] Fill blank: measured EC50, NFκB (reduction of NFκB activation, SEAP reporter cells, LPS) of the binder Ac-RRRKFT[Nal]LD (lactam 4-9) [SERPIN peptide derivative A3-7, Ac-RRRKFT[Nal]LD (cyclic)] is ____.
[A] 22.4
